Test system: U2OS
Procedure Summary: cell viability relative to DMSO; higher = less toxic
Test Context: 72 h; 10000 nM
Listing of recorded cell viability by entry.
Could you give the number and then its unit, please?

CCC1NC(=O)c2cc(S(N)(=O)=O)c(Cl)cc2N1 (configuration not stated) [quinethazone] :: 105%

Form field: cell viability recorded for NCC1CC(=O)N(Cc2ccccc2)C1 (configuration not stated) [nebracetam] with U2OS (enter value)
104%

Form field: cell viability recorded for CC1(C)S[C@@H]2[C@H](NC(=O)[C@H](NC(=O)N3CCN(S(C)(=O)=O)C3=O)c3ccccc3)C(=O)N2[C@H]1C(=O)O [mezlocillin] with U2OS (enter value)
94.8%

Form field: cell viability recorded for OC[C@H]1O[C@@H](Oc2ccc(O)cc2)[C@H](O)[C@@H](O)[C@@H]1O [arbutin] with U2OS (enter value)
108%

Form field: cell viability recorded for CC1(C)CC[C@]2(C(=O)O)CC[C@]3(C)[C@H](C(=O)C=C4[C@@]5(C)C=C(C#N)C(=O)C(C)(C)[C@@H]5CC[C@]43C)[C@@H]2C1 [bardoxolone] with U2OS (enter value)
12%

Form field: cell viability recorded for CCN(CCCOc1ccc2c(Nc3cc(CC(=O)Nc4cccc(F)c4)[nH]n3)ncnc2c1)CCOP(=O)(O)O [barasertib] with U2OS (enter value)
89.7%

Form field: cell viability recorded for CC(C)(C)c1nc(-c2cccc(NS(=O)(=O)c3c(F)cccc3F)c2F)c(-c2ccnc(N)n2)s1 [dabrafenib] with U2OS (enter value)
102%
